Assay Text: Pharmacokinetic study in rats (plasma LC-MS/MS) after iv or oral VOC, oral VOC-P188 or oral VOC-β-CD
Type: in vivo, Sprague Dawley rats
Run Conditions: VOC-β-CD inclusion compound po, rat plasma, n = 6
Quantity: t1/2α

{"columns": ["Compound", "Result"],
 "data": [
  ["CCCCC1OC(=O)C2=C1CCC=C2 (centres unmarked) [SA, senkyunolide A]", "2.34 ± 1.24 h"],
  ["CCCC[C@@H]1OC(=O)C2=CCCC[C@H]21 [NOL, Neocnidilide]", "3.21 ± 2.44 h"],
  ["CCCC[C@@H]1OC(=O)c2ccccc21 [NBP, N-butylphthalide, reference compound]", "3.95 ± 1.96^** h"],
  ["CCC/C=C1\\OC(=O)c2ccccc21", "7.02 ± 5.42^* h"],
  ["CCC/C=C1\\OC(=O)C2=C1CCC=C2 [ZL, Z-ligustilide]", "4.72 ± 1.92^* h"]
]}
